System: Swiss mice, Sarcoma 180 sc, mean tumor weight T/C
assay remarks: NCI In Vivo Anticancer Drug Screen. Data for tumor model Sarcoma 180 (subcutaneous) in Swiss mice
measurement context: endpoint: mean tumor weight; dose: 32.0 mg/kg/injection; schedule: Q01DX007 (ip); vehicle: carboxymethylcellulose (CMC); higher = larger tumour
reported endpoint: T/C

{"columns": ["compound smiles", "reported endpoint", "result"],
 "data": [
  ["O=C(Nc1ccc(C2=NCCCN2)cc1)c1ccc(C(=O)Nc2ccc(C3=NCCCN3)cc2)cc1", "T/C", "14 % of control"],
  ["O=C(O)C(=O)c1ccc(-c2ccccc2)cc1", "T/C", "80 % of control"],
  ["CCCCNc1ncnc2c1cnn2C", "T/C", "77 % of control"],
  ["NC(=O)NO", "T/C", "111 % of control"]
]}
